biological target: T1, hCD47-ECD/Fc protein (Sinobiological) (human, UniProt Q08722 19-139, biotinylated in the Octet assay, sites not stated); experiment: competition ELISA vs biotin-hSIRPα-ECD/His on coated hCD47-ECD/Fc, experiment 1
T1 construct: extracellular domain; Bought protein; also called human CD47-Fc antigen; recombinant hCD47-ECD/Fc; not shown: Fc part of the bought fusion protein
T1 sequence (Q08722 19-139 limits assumed): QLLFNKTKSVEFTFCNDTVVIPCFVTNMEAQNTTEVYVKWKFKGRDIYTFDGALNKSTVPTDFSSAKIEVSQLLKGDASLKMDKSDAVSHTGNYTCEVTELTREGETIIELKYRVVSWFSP
pIC50: −log10 of the molar value.
recorded_endpoint: pIC50

Prompt line: Please report the recorded pIC50 for TY25033 (antibody, V domains shown) VH: QVQLVQSGAEVKKPGSSVKVSCKASGFTFTSYAIHWVRQAPGQGLEWIGIINPNFGSTNYAQKFQGRVTITADKSTSTAYMELSSLRSEDTAVYYCARYYYGASFDVWGQGTLVTVSS VL: DIQLTQSPSSLSASVGDRVTITCKSGQSLLHGDVKTYLYWYQQKPGKAPKLLIYDASNRATGIPSRFSGSGSGTDFTLTISSLQPEDFATYYCQQYASWPPGFTFGQGTKVEIKR .
Response line: < 7.00
